These entries and their values trace back to PubChem BioAssay (NCI).

Test: NCI Yeast Anticancer Drug Screen. Data for the mec2-1 strain (AID 157)
Conditions: S. cerevisiae mec2-1 strain, at 50.0 µM, stronger effect = higher value
The panel holds about 79,000 compounds, 15% with a hit somewhere; the sample as a whole holds those more often.
Measure name: growth inhibition (%)
Numbers only, in %.

Recorded results for 5 molecules are shown here.
CC(=O)c1ccc(N=C2C=CC(=O)O2)cc1 :: -14.9
CSc1nc2c(c(=O)[nH]1)N=C(c1ccccc1)CC(c1ccccc1)N2 (configuration not stated) :: 14.7
C1CC[N+]2(CC1)CCCCC2 :: 9.4
COc1ccccc1/C=C(\C)C(=O)O :: -15.3
Cn1c(=O)c2[nH]c(SCCN3CCOCC3)nc2n(C)c1=S :: -47.2

Give growth inhibition for each of the items listed below.
1. O=C1NN2CCN=C2c2ccccc21
2. COc1ccc(N2C(=O)CC(c3cc(OC)c(OC)c(OC)c3)CC2=O)cc1

1. -30
2. -20.5

Give growth inhibition for each of the items listed below.
1. COc1ccc(OC)c(NC(=O)C(=O)NNC(=O)c2sc(NNC(C)=O)nc2C)c1
2. O=C(c1cc([N+](=O)[O-])cc([N+](=O)[O-])c1)N1CCCC1
3. CN(C)S(=O)(=O)c1ccc(Cl)cc1
4. O=C(COc1ccc(Cl)c(Cl)c1)Nc1ccc(C(=O)CCl)cc1

1. 28.8
2. -20.7
3. -4.4
4. 31.3

# lookup: growth inhibition of CCCCOC(=O)CNC(=O)OC/C=C/C#CC#C/C=C/COC(=O)NCC(=O)OCCCC
-35.8
